study-system: T1r2a/T1r3 full-length receptor (Oryzias latipes, UniProt A0A173M094+A0A173M0G2)
Sequence (A0A173M0G2 entry or part of it): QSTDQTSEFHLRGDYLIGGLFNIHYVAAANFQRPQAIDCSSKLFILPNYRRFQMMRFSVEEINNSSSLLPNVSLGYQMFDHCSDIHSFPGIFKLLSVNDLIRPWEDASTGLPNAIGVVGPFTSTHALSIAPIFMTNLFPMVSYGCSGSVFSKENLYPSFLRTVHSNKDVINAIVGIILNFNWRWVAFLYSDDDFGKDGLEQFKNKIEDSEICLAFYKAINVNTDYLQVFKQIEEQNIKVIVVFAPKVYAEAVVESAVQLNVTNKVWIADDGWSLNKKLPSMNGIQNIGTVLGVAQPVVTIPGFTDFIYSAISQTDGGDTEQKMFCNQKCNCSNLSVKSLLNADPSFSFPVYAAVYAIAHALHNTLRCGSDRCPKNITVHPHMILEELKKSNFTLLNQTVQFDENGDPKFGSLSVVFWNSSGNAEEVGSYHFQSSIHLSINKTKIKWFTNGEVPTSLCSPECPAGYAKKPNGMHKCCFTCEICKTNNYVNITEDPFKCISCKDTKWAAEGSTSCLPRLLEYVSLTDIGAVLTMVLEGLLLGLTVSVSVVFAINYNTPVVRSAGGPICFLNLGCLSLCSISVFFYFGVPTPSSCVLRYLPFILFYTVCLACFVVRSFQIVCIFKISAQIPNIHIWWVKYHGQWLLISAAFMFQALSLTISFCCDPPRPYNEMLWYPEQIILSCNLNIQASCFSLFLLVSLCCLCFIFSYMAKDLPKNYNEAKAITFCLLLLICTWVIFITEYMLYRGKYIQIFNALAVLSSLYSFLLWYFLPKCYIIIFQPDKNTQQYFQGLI
Sequence (A0A173M094 entry or part of it): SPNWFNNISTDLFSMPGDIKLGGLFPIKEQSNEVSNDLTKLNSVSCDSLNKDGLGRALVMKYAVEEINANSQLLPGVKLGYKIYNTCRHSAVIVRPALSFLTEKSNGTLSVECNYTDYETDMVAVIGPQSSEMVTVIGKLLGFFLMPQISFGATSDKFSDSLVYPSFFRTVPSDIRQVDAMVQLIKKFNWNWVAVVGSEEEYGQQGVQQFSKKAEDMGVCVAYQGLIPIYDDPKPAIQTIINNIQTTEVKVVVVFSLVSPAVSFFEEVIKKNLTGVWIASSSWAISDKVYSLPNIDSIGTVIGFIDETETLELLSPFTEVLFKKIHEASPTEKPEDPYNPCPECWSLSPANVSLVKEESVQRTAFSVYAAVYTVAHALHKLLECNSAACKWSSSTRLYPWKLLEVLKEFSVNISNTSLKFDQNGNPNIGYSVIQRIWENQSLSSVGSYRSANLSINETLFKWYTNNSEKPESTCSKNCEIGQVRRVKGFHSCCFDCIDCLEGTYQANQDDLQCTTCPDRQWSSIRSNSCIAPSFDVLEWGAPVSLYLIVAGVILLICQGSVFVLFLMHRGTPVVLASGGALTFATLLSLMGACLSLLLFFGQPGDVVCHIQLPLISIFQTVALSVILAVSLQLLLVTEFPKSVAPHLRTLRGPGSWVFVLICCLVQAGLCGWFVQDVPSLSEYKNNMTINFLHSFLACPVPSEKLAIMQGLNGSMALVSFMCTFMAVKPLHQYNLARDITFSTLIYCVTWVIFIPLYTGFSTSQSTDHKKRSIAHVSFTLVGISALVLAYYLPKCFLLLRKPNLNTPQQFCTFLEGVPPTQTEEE
experiment: Ca2+-flux receptor response assay in Flip-In 293 cells stably expressing full-length T1r2a, T1r3 and Gα16-gust44
Type: cell-based, O. latipes
settings: estimated from ΔRFU at 5 mM by Hill equation, ΔRFUmax 104.3; read-out: EC50-est
Provide the recorded pEC50 for the entries that follow.
The read-out pEC50 is expressed as -log10 of concentration in moles per litre.

Query :: Quick check: pEC50 on T1r2a/T1r3 full-length receptor (Oryzias latipes, UniProt A0A173M094+A0A173M0G2), item "C[C@@H](N)C(=O)O" ?
Result :: 1.16

Query :: Quick check: pEC50 on T1r2a/T1r3 full-length receptor (Oryzias latipes, UniProt A0A173M094+A0A173M0G2), item "C[C@H](N)C(=O)O" ?
Result :: 2.51

Query :: Quick check: pEC50 on T1r2a/T1r3 full-length receptor (Oryzias latipes, UniProt A0A173M094+A0A173M0G2), item "N[C@@H](CO)C(=O)O" ?
Result :: 1.39

Query :: Quick check: pEC50 on T1r2a/T1r3 full-length receptor (Oryzias latipes, UniProt A0A173M094+A0A173M0G2), item "NCC(=O)O" ?
Result :: 1.47
